- Tested on: MALME-3M melanoma
- ASSAY_OVERVIEW: NCI tumour cell line growth inhibition, 48 h; in the data active means GI50 below about 0.43 µM; inactive means the rest
Could you please pick one outcome from this set? t (active), f (inactive)

Some entries whose results are on file:
COMPOUND: CCCCCCCCCCCCCCCCCC1=NC(C)(C)CN1CC(C)O (stereo not drawn)
LABEL_CLASS: f
--
COMPOUND: O=c1c2cc(F)ccc2sc2c(N3CCNCC3)nc3ccc(F)cc3c12
LABEL_CLASS: f

[in] What did the test return for Nc1nonc1-c1nc2cnccc2n1C1CC1 ?
[out] f

[in] And the next one, CC(C)c1c(-c2ccccc2)nc2c(C#N)c[nH]n2c1=O ?
[out] f

[in] And the next one, Cc1ncc(C(=O)Nc2ccc(CN3CCN(C)CC3)c(C(F)(F)F)c2)cc1C#Cc1cnc2cccnn12 ?
[out] t

[in] And the next one, CS(=O)(=O)CCNCc1cc(-c2cc3c(Nc4ccc(OCc5cccc(F)c5)c(Cl)c4)ncnc3s2)cs1 ?
[out] f

[in] And the next one, Cc1nc(-c2ccccc2)n2nc(NCCCN3CCOCC3)ncc12 ?
[out] f

[in] And the next one, Cc1nc(N)nc2c1CCC(O)S2 (stereo not drawn) ?
[out] f
